Catalogue of compounds with associated melting point
Respond with the bare value in °C.

Example results:
> print(dat)
                         compound.string  numeric.readout
1                     Cc1cccc(C(=O)O)c1O              166
2  O=Cc1ccc([N+](=O)[O-])cc1[N+](=O)[O-]               72
3                 c1ccc2c(c1)Cc1ccccc1-2              115
4                      CCOC(=O)c1ccccc1N               13

"CC=C(C)CC" has a reported melting point of -137

"BrCCc1ccccc1" has a reported melting point of -65.7

"OC1c2ccccc2-c2ccccc21" has a reported melting point of 154

"CCC1(C(C)C)C(=O)NC(=O)NC1=O" has a reported melting point of 203

"C1CC2CCCC(C1)C2" has a reported melting point of 146

"O=[N+]([O-])c1cccc([N+](=O)[O-])c1Cl" has a reported melting point of 88

"CCN=C=S" has a reported melting point of -5.9

"CN1CCC(OC(c2ccccc2)c2ccccc2)CC1.Cl" has a reported melting point of 204

"CC(CO)(CO)CO" has a reported melting point of 204

"COc1cc2c(c3oc(=O)c4c(c13)CCC4=O)[C@@H]1CCO[C@@H]1O2" has a reported melting point of 288

"NCCS" has a reported melting point of 98

"CCSCCSCC" has a reported melting point of 180

###

Decision: boiling point compared against 100 °C; not below it gives MET, below it gives NOT MET.

Would you please look over these solved cases?
> print(dat)
                                    compound  classification
 1           CC1=CCC(C)C1 (stereo not drawn)         NOT MET
 2                                N#CC(Cl)Cl             MET
 3                           C=C(C)CCC=C(C)C             MET
 4                          CC(F)(F)C(F)(F)F         NOT MET
 5                                 S=C(Cl)Cl         NOT MET
 6                            ClC=CCc1ccccc1             MET
 7                                    CCCCCN             MET
 8  FC1(F)C(F)(F)C(F)(Cl)C1(F)Cl (stereo not drawn)         NOT MET
 9                CCCCCCCC/C=C\CCCCCCCCCCCCC             MET
10                     O=C(Cl)OCCOCCOC(=O)Cl             MET

Hi team, for "O=C(Cl)C1CCCCC1" , is the recorded boiling point at or above 100 °C? MET

Hi team, for "O=[N+]([O-])c1ccc(Cl)c(Cl)c1" , is the recorded boiling point at or above 100 °C? MET

Hi team, for "c1ccc2c(c1)cc1ccc3cccc4ccc2c1c34" , is the recorded boiling point at or above 100 °C? MET

Hi team, for "FC(F)COC(F)F" , is the recorded boiling point at or above 100 °C? NOT MET

Hi team, for CCCCCC(C)CCC (stereo not drawn) , is the recorded boiling point at or above 100 °C? MET

Hi team, for "CCOCCN" , is the recorded boiling point at or above 100 °C? MET

Hi team, for "CCc1cc(C)cc(CC)c1" , is the recorded boiling point at or above 100 °C? MET

Hi team, for "CCN(CC)CC#N" , is the recorded boiling point at or above 100 °C? MET

###

Catalogue of compounds with associated melting point
Respond with the bare value in °C.

Example results:
> print(dat)
                                   compound  numeric.readout
1                O=C(Nc1cccc(Cl)c1)OCC#CCCl               75
2  C#C[C@]1(O)CC[C@H]2[C@@H]3CCC4=CC(=O)CCC4=C3C=C[C@@]21C              169
3                                 CCC=C(C)C             -135
4                                 CCC(CC)CC             -119

"O=[N+]([O-])c1ccc(Cl)cc1Cl" has a reported melting point of 34

"c1ccc2nc3ccccc3nc2c1" has a reported melting point of 176

"CC(=O)N1CCOCC1" has a reported melting point of 14.5

"N=C(N)NC(=O)Cc1c(Cl)cccc1Cl" has a reported melting point of 226

"O=c1c(O)c(-c2ccc(O)c(O)c2)oc2cc(O[C@@H]3O[C@H](CO)[C@@H](O)[C@H](O)[C@H]3O)cc(O)c12" has a reported melting point of 248

"CC(C)(C)CC(=O)O" has a reported melting point of 6.5

###

property-measured: melting point (°C)
Respond with the bare value in °C.

Example results:
> print(dat)
                            compound.string  measure.unit  numeric.readout
1  C[C@]12CC[C@@H]3c4ccc(O)cc4CC[C@H]3[C@@H]1C[C@@H](O)[C@@H]2O            °C              282
2  CCC(=O)O[C@H]1CC[C@H]2[C@@H]3CC[C@H]4CC(=O)[C@H](C)C[C@]4(C)[C@H]3CC[C@]12C            °C              128
3                       C[C@H](N)CCc1ccccc1            °C              143
4                            CC(=O)c1ccncc1            °C               16
5       CC(C)(C)NC[C@H](O)COc1ccccc1C1CCCC1            °C               70

Proceeding to the next molecule to report its melting point.
"COBOC" has a reported melting point of -131

###

Catalogue of compounds with associated melting point
Respond with the bare value in °C.

Example results:
> print(dat)
                                   compound  property.measured  measure.unit  numeric.readout
1                          CCCCOc1ccc(O)cc1      melting point            °C             65.5
2  C=CC1(C)CC(OC(=O)CO)C2(C)C(C)CCC3(CCC(=O)C32)C(C)C1O (configuration not stated)      melting point            °C              170
3                         CCCc1cccc2ccccc12      melting point            °C             -8.6
4                            CNCCS(=O)(=O)O      melting point            °C              242
5  C[C@@H]1CC2=CC(=O)CC[C@]2(C)[C@H]2CC[C@@]3(C)[C@@H](CC[C@]3(C)O)[C@H]12      melting point            °C              146
6                       N#Cc1cccc(C(=O)O)c1      melting point            °C              219

"Brc1ccc2[nH]ccc2c1" has a reported melting point of 91

###

Catalogue of compounds with associated log10 vapour pressure (mmHg)
I only need the number, thanks.

> print(dat)
                         compound.string             property.measured  numeric.readout
1                     Brc1cc(Br)cc(Br)c1  log10 vapour pressure (mmHg)            -2.82
2  Clc1cc(Cl)c2oc3c(Cl)c(Cl)c(Cl)cc3c2c1  log10 vapour pressure (mmHg)            -8.73
3            O=C(O)c1ccc2c(c1)C(=O)OC2=O  log10 vapour pressure (mmHg)            -5.01
4                        Oc1cccc2cccnc12  log10 vapour pressure (mmHg)            -2.78
5                 O=C(C(F)(F)F)C(F)(F)Cl  log10 vapour pressure (mmHg)             3.15
6                        Cc1ccc(O)c(C)c1  log10 vapour pressure (mmHg)           -0.991
7                             CCC(C)(C)S  log10 vapour pressure (mmHg)             1.68

Proceeding to the next compound to report its log10 vapour pressure (mmHg).
"CCCCCCCCCCCCCC(=O)O" has a reported log10 vapour pressure (mmHg) of -5.85

These measurements were taken from the OPERA property sets (Mansouri et al. 2018).
